Tested on: RH-35 rat liver cancer cell line
ASSAY SUMMARY: MTT assay, inhibition of proliferation of RH-35 rat liver cancer cells
Format: cell-based
EXPERIMENTAL CONTEXT: read-out: Cell proliferation RH-35 IC50, rat RH-35 cells, 72 h, average of 3 independent experiments + SEM
REPORTED PROPERTY: IC50 (µM)
Give bare numbers, in µM.

// lookup IC50 for CC12CCC(OC(=O)NCCCn3ccnc3)CC1CCC1C2CCC2(C)C(c3ccc(=O)oc3)CCC12O (stereo not shown)
37.4
